Reference source for all entries: PubChem BioAssay AID1963834

- System: 873145-292-R-J1-PDC complex spheroid viability
- test_protocol: Anticancer human tumor 873145-292-R-J1-PDC patient-derived renal clear cell carcinoma cell line growth inhibition [POLQ]
- measurement_context: second compound 0.1 µM; first compound 0.0316 µM; hits give low values
Measured viability, T/C accompanies every entry in the list below.
attribute_measured: viability, T/C (%)

1. CCc1cc2c(N3CCc4c(cc(Cn5ccnc5)cc4-c4cn(C)nc4C(F)(F)F)C3=O)cc(C)nc2c(OC)n1 + Cc1cccc(N(C)C(=O)C2C(O)CCN2c2nc(C)cc(C(F)(F)F)c2C#N)c1: 97.1
2. C#Cc1c(F)ccc2cc(O)cc(-c3ncc4c(N5CC6CCC(C5)N6)nc(OCC56CCCN5CC(F)C6)nc4c3F)c12 (configuration not stated) + Cc1cccc(N(C)C(=O)C2C(O)CCN2c2nc(C)cc(C(F)(F)F)c2C#N)c1: 103
3. C=CCn1c(=O)c2cnc(Nc3ccc(N4CCN(C)CC4)cc3)nc2n1-c1cccc(C(C)(C)O)n1 + COC1C(OC(N)=O)C(O)C(Oc2ccc3c(O)c(NC(=O)c4ccc(O)c(CC=C(C)C)c4)c(=O)oc3c2C)OC1(C)C: 100
4. CCc1cc2c(N3CCc4c(cc(Cn5ccnc5)cc4-c4cn(C)nc4C(F)(F)F)C3=O)cc(C)nc2c(OC)n1 + COC1C(OC(N)=O)C(O)C(Oc2ccc3c(O)c(NC(=O)c4ccc(O)c(CC=C(C)C)c4)c(=O)oc3c2C)OC1(C)C: 92.5
5. Cn1ncnc1[C@H]1c2n[nH]c(=O)c3cc(F)cc(c23)N[C@@H]1c1ccc(F)cc1 + Cc1cccc(N(C)C(=O)C2C(O)CCN2c2nc(C)cc(C(F)(F)F)c2C#N)c1: 105
6. Nc1ccn(C2OC(CO)C(O)C2(F)F)c(=O)n1 (configuration not stated) + Cc1cccc(N(C)C(=O)C2C(O)CCN2c2nc(C)cc(C(F)(F)F)c2C#N)c1: 82.3
7. Cn1ncnc1[C@H]1c2n[nH]c(=O)c3cc(F)cc(c23)N[C@@H]1c1ccc(F)cc1 + COC1C(OC(N)=O)C(O)C(Oc2ccc3c(O)c(NC(=O)c4ccc(O)c(CC=C(C)C)c4)c(=O)oc3c2C)OC1(C)C: 99.5

----------
- Tested on: 873145-292-R-J1-PDC complex spheroid viability
- test_protocol: Anticancer human tumor 873145-292-R-J1-PDC cell line growth inhibition [POLQ];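 further: luminescence signal used as surrogate for viable cell content; spheroids exposed to compounds for 7 days before viability readout; 100% = DMSO vehicle control viability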
- measurement_context: second compound 0.316 µM; first compound 0.316 µM; hits give low values
viability, T/C under 80% gets Condition met, anything at or over 80% gets Condition not met.

1) O=C(Nc1ccc(O)c(NS(=O)(=O)c2ccc(F)cc2)c1)c1ccc(-c2ccccc2)cc1 + Cc1cccc(N(C)C(=O)C2C(O)CCN2c2nc(C)cc(C(F)(F)F)c2C#N)c1: Condition not met
2) COc1cc2cc(C(=O)CCC(=O)O)sc2cc1OC + COC1C(OC(N)=O)C(O)C(Oc2ccc3c(O)c(NC(=O)c4ccc(O)c(CC=C(C)C)c4)c(=O)oc3c2C)OC1(C)C: Condition not met
3) CCc1c2c(nc3ccc(O)cc13)-c1cc3c(c(=O)n1C2)COC(=O)[C@]3(O)CC + Nc1ccc(C#CCN(C(=O)Cc2ncc(C(F)(F)F)cc2C(F)(F)F)c2ccc(F)cc2)nn1: Condition met
